Molecular target: UniProt:P01116
Test: GTP-K-Ras and cRAF interaction assay (GppNp-K-Ras), K-Ras WT
Conditions: read-out: K-Ras WT GppNp Biochemical Activity (IC50)
assay.metric: pIC50
Answers are plain numbers, as −log10 of the molar value.

Solved cases below.
compound="C#Cc1c(F)ccc2cc(O)cc(-c3c(Cl)cc4c(N5CCCOCC5)nc(OC[C@@]56CCCN5C[C@H](F)C6)nc4c3F)c12 (atropisomer, axis not shown; (M)) [Compound 19B]" value_reported=6.74
compound="C#Cc1c(F)ccc2cc(O)cc(-c3ncc4c(N5CCCOC[C@@H]5C)nc(OC[C@@]56CCCN5C[C@H](F)C6)nc4c3F)c12 (single isomer, unassigned) [Compound 16A]" value_reported=6.13
compound="C#Cc1c(F)ccc2cc(O)cc(-c3ncc4c(N5CCCOC[C@H]5C)nc(OC[C@@]56CCCN5C[C@H](F)C6)nc4c3F)c12 (single isomer, unassigned) [Compound 16B]" value_reported=7.67

Quick note, pIC50 for C#Cc1c(F)ccc2cc(O)cc(-c3ncc4c(N5CCOC[C@H](CC#N)C5)nc(OC[C@@]56CCCN5C[C@H](F)C6)nc4c3F)c12 (single isomer, unassigned) [Compound 14B] landed at 7.80

---

Answer each item with its documented IC50.
Target: K-Ras G12V (Homo sapiens, UniProt P01116, G12V)
Sequence (P01116 1-169 isoform P01116-2 G12V): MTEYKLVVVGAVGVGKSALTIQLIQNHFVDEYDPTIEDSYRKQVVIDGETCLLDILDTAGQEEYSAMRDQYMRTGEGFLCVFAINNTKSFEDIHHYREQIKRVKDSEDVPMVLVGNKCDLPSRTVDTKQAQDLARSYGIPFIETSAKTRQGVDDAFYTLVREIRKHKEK
Test: SOS1 catalyzed nucleotide exchange assay (GDP form K-Ras), K-Ras G12V
Conditions: read-out: K-Ras G12V GDP Biochemical Activity (IC50)
One number for each entry, in nM.

compound="C#Cc1c(F)ccc2cc(O)cc(-c3ncc4c(N5CCOC[C@H](OC)C5)nc(OC[C@@]56CCCN5C[C@H](F)C6)nc4c3F)c12 (single isomer, unassigned) [Compound 49B]" assay_metric=IC50 value_reported=0.77
compound="C#Cc1c(F)ccc2cc(O)cc(-c3nc(OC(C)C)c4c(N5CCCOCC5)nc(OC[C@@]56CCCN5C[C@H](F)C6)nc4c3F)c12 [Compound 52, trifluoroacetic acid]" assay_metric=IC50 value_reported=1.88

// input: 3 compounds below; output: IC50 for each
1. C#Cc1c(F)ccc2cc(O)cc(-c3ncc4c(N5CC6COC(C6)C5)nc(OC[C@@]56CCCN5C[C@H](F)C6)nc4c3F)c12 (single isomer, unassigned) [Compound 84A]
2. C#Cc1c(F)ccc2cc(O)cc(-c3ncc4c(N5CCCOCC5)nc(OCC56CCCN5CC(C)(F)C6)nc4c3F)c12 (stereo not shown) [Compound 10]
3. C#Cc1c(F)ccc2cc(O)cc(-c3ncc4c(N5CCOC[C@H](C)C5)nc(OC[C@@]56CCCN5C[C@H](F)C6)nc4c3F)c12 (single isomer, unassigned) [Compound 13B]

**Result**
1: 3.43; 2: 1.28; 3: 0.658

// input: 5 compounds below; output: IC50 for each
1. C#Cc1c(F)ccc2cc(O)cc(-c3c(C(F)(F)F)cc4c(N5CCCOCC5)nc(OC[C@@]56CCCN5C[C@H](F)C6)nc4c3F)c12 [Compound 37]
2. C#Cc1c(F)ccc2cc(O)cc(-c3ncc4c(N5[C@H]6COC[C@@H](C)[C@@H]5C6)nc(OC[C@@]56CCCN5C[C@H](F)C6)nc4c3F)c12 [Compound 111]
3. C#Cc1c(F)ccc2cc(O)cc(-c3ncc4c(N5CCOCC(N(C)C)C5)nc(OC[C@@]56CCCN5C[C@H](F)C6)nc4c3F)c12 (stereo partly shown) [Compound 26]
4. C#Cc1c(F)ccc2cc(O)cc(-c3ncc4c(N5CCCOCC5)nc(OCC56CCCN5C[C@](C)(F)C6)nc4c3F)c12 (single isomer, unassigned) [Compound 32B]
5. C#Cc1c(F)ccc2cc(O)cc(-c3ncc4c(N5CCCOC6CC65)nc(OC[C@@H]5CCCN5C)nc4c3F)c12 (stereo partly shown) [Compound 113]

**Result**
1. 6.71
2. 4.21
3. 5.77
4. 1.97
5. 1.66

---

Test system: p-ERK in AGS cells (K-Ras G12D)
Experiment: Phospho-ERK1/2(THR202/TYR204) HTRF assay, AGS
Type: cell-based
Details: 2 hours incubation
assay.metric: IC50 (nM)
Answers are plain numbers, in nM.

Quick note, IC50 for C#Cc1c(F)ccc2cc(O)cc(-c3ncc4c(N5CC6COC(C6)C5)nc(OC[C@@]56CCCN5C[C@H](F)C6)nc4c3F)c12 (single isomer, unassigned) [Compound 84A] landed at 29.1

---

Answer each item with its documented IC50.
Biological target: K-Ras G12V (Homo sapiens, UniProt P01116, G12V)
Experiment: biochemical
Numbers only, in nM.

Solved cases below.
molecule="C#Cc1c(F)ccc2cc(O)cc(-c3ncc4c(N5CCCOCC5)nc(OCC56CCCN5C[C@@](C)(F)C6)nc4c3F)c12 (single isomer, unassigned) [Compound 32A]" assay_metric=IC50 value_reported=62.6
molecule="C#Cc1c(F)ccc2cc(O)cc(-c3ncc4c(N5CCOC[C@@H](O)C5)nc(OC[C@@]56CCCN5C[C@H](F)C6)nc4c3F)c12 (single isomer, unassigned) [Compound 46B]" assay_metric=IC50 value_reported=50.9
molecule="C#Cc1c(F)ccc2cc(O)cc(-c3ncc4c(N5CCOC[C@H](C)C5)nc(OC[C@@]56CCCN5C[C@H](F)C6)nc4c3F)c12 (single isomer, unassigned) [Compound 13B]" assay_metric=IC50 value_reported=35.7
molecule=C#Cc1c(F)ccc2cc(O)cc(-c3nc(SC)c4c(N5CCCOCC5)nc(OC[C@@]56CCCN5C[C@H](F)C6)nc4c3F)c12 assay_metric=IC50 value_reported=152
molecule=C#Cc1c(F)ccc2cc(O)cc(-c3nc(C4CC4)c4c(N5CCCOCC5)nc(OC[C@@]56CCCN5C[C@H](F)C6)nc4c3F)c12 assay_metric=IC50 value_reported=22.1

// input: 6 molecules below; output: IC50 for each
1. C#Cc1c(F)ccc2cc(O)cc(-c3c(C(F)(F)F)cc4c(N5CCCOCC5)nc(OC[C@@]56CCCN5C[C@H](F)C6)nc4c3F)c12
2. C#Cc1c(F)ccc2cc(O)cc(-c3ncc4c(N5CC(C)COCC5C)nc(OC[C@@]56CCCN5C[C@H](F)C6)nc4c3F)c12 (some centres unmarked)
3. C#Cc1c(F)ccc2cc(O)cc(-c3ncc4c(N5CCCO[C@@H](C)C5)nc(OC[C@@]56CCCN5C[C@H](F)C6)nc4c3F)c12 (single isomer, unassigned)
4. C#Cc1c(F)ccc2cc(O)cc(-c3ncc4c(N5CCCOCC5)nc(OC[C@H]5CCCN5C)nc4c3F)c12
5. C#Cc1c(F)ccc2cc(O)cc(-c3ncc4c(N5CCOC(C)CC5)nc(OC[C@@]56CCCN5C[C@H](F)C6)nc4c3F)c12 (some centres unmarked)
6. C#Cc1c(F)ccc2cc(O)cc(-c3ccc4c(N5CCCOCC5)nc(OCC5(CN6CCOCC6)CC5)nc4c3F)c12

**Result**
1. 147
2. 720
3. 170
4. 207
5. 796
6. 1630

// input: 5 molecules below; output: IC50 for each
1. C#Cc1c(F)ccc2cc(O)cc(-c3ncc4c(N5CCCO[C@@H]6C[C@@H]65)nc(OCC5(CN6CCOCC6)CC5)nc4c3F)c12 (single isomer, unassigned) [Compound 28B]
2. C#Cc1c(F)ccc2cc(O)cc(-c3ncc4c(N5CCOCC(N(C)C)C5)nc(OC[C@@]56CCCN5C[C@H](F)C6)nc4c3F)c12 (some centres unmarked)
3. C#Cc1c(F)ccc2cc(O)cc(-c3ncc4c(N5CCOC[C@H](OC)C5)nc(OC[C@@]56CCCN5C[C@H](F)C6)nc4c3F)c12 (single isomer, unassigned) [Compound 49B]
4. C#Cc1c(F)ccc2cc(O)cc(-c3ncc4c(N5CCCOC6CC65)nc(OC[C@@H]5CCCN5C)nc4c3F)c12 (some centres unmarked)
5. C#Cc1c(F)ccc2cc(O)cc(-c3ncc4c(N5CCOCC(F)(F)C5)nc(OC[C@@]56CCCN5C[C@H](F)C6)nc4c3F)c12

**Result**
[29.2, 4150, 552, 29, 107]

// input: 2 molecules below; output: IC50 for each
1. C#Cc1c(F)ccc2cc(O)cc(-c3ncc4c(N5CCCOCC5)nc(OCC5CN(C(=O)C=C)CCN5C)nc4c3F)c12 (centres unmarked)
2. C#Cc1c(F)ccc2cc(O)cc(-c3ncc4c(N5CCCOCC5)nc(OCC5CNCCN5C)nc4c3F)c12 (centres unmarked)

**Result**
1: 8190; 2: 2770

---

Answer each item with its documented IC50.
Tested on: AsPC-1 cells (K-Ras G12D)
Assay: 2D cell growth inhibition assay, AsPC-1
Assay type: cell-based
Conditions: Homo sapiens, ASPC1, 144 h, AsPC-1, K-Ras G12D, 6 days, absolute IC50
Answers are plain numbers, in nM.

Solved cases below.
compound="C#Cc1c(F)ccc2cc(O)cc(-c3ncc4c(N5CCOC[C@@H](C)C5)nc(OC[C@@]56CCCN5C[C@H](F)C6)nc4c3F)c12 (single isomer, unassigned) [Compound 13A]" value_reported=680
compound=C#Cc1c(F)ccc2cc(O)cc(-c3nc(CO)c4c(N5CCCOCC5)nc(OC[C@@]56CCCN5C[C@H](F)C6)nc4c3F)c12 value_reported=734
compound=C#Cc1c(F)c(F)cc2cc(O)cc(-c3ncc4c(N5CCCOCC5)nc(OC[C@@]56CCCN5C[C@H](F)C6)nc4c3F)c12 value_reported=53.6
compound="C#Cc1c(F)ccc2cc(O)cc(-c3ncc4c(N5CC(F)COCC5C)nc(OC[C@@]56CCCN5C[C@H](F)C6)nc4c3F)c12 (stereo partly drawn)" value_reported=60.9
compound="C#Cc1c(F)ccc2cc(O)cc(-c3ncc4c(N5CCOCC(COC)C5)nc(OC[C@@]56CCCN5C[C@H](F)C6)nc4c3F)c12 (stereo partly drawn)" value_reported=32.8
compound="C#Cc1c(F)ccc2cc(O)cc(-c3ncc4c(N5CCCOC[C@@H]5C)nc(OC[C@@]56CCCN5C[C@H](F)C6)nc4c3F)c12 (single isomer, unassigned) [Compound 16A]" value_reported=1380
compound="C#Cc1c(F)ccc2cc(O)cc(-c3ncc4c(N5CCCOCC5)nc(OCC56CCCN5C[C@](C)(F)C6)nc4c3F)c12 (single isomer, unassigned) [Compound 32B]" value_reported=135
compound="C#Cc1c(F)ccc2cc(O)cc(-c3ncc4c(N5CCCO[C@@H]6C[C@@H]65)nc(OCC5(CN6CCOCC6)CC5)nc4c3F)c12 (single isomer, unassigned) [Compound 28B]" value_reported=18.2

Would you kindly look at the next entry?
Quick note, IC50 for C#Cc1c(F)ccc2cc(O)cc(-c3ncc4c(N5CCCOCC5C)nc(OC[C@@]56CCCN5C[C@H](F)C6)nc4c3F)c12 (mixture of isomers) landed at 133
